Values compiled from a melting point compilation (Tetko et al.; mined from patent text by program, amines drawn as free bases though some values may be those of a salt).

Each item that follows carries a reported melting point.
value_kind: melting point

molecule=COc1ccc(-c2coc3ccc(-c4nnc(SCc5cccc(OC)c5)o4)cc23)cc1 value_kind="melting point" assay_value="118 to 119 °C"
molecule=COc1cc(OCCCN(C)Cc2ccc(OC)c(OC)c2)ccc1NC(=O)c1cccc2c(=O)c3cccc(C)c3[nH]c12 value_kind="melting point" assay_value="156 to 157 °C"
molecule=Cc1ccc(OCc2c(F)cccc2Cl)c(N)n1 value_kind="melting point" assay_value="108 to 109 °C"
molecule="N#Cc1cccc(C2SC[C@@H](C(=O)O)N2C(=O)CCCCCC(=O)N2C(c3cccc(C#N)c3)SC[C@H]2C(=O)O)c1 (stereo partly specified)" value_kind="melting point" assay_value="105 to 112 °C"
molecule=CCc1n[nH]c2c1nc(-c1ccccc1)c1ccccc12 value_kind="melting point" assay_value="250 to 251 °C"
molecule="CCCCCNC(=O)C(C)Cc1ccc2c(c1)c(Cc1ccc(C(=O)O)cc1OC)cn2C (stereo unspecified)" value_kind="melting point" assay_value="85 to 95 °C"
